system: TAB113; assay: qHTS profiling for inhibitors of Plasmodium falciparum proliferation (AID 504749); further: nearly all actives have a fitted effect of over 60% in size; conditions: P. falciparum in erythrocytes, SYBR Green DNA, 72 h; series mostly up to 28.7 µM
Inconclusive results are not listed. The source made the active and inactive calls. The call rests on the fitted dose curve; in most records, active means well fitted inhibition curve with a large enough effect; inconclusive means small, poorly fitted or top-dose-only effect; inactive means flat fitted curve, though single readings scatter.
Assign a class; possible classes are true for active, false for inactive

[[record]]
compound = "O=C1CCC(N2C(=O)c3ccccc3C2=O)C(=O)N1 (stereo unspecified)"
label_value = "false"

[[record]]
compound = "CCCc1nc2c(C)cc(-c3nc4ccccc4n3C)cc2n1Cc1ccc(-c2ccccc2C(=O)O)cc1"
label_value = "true"

[[record]]
compound = "Clc1cccc(Cl)c1NC1=NCCN1"
label_value = "false"


What is the recorded call for this compound in the test? NCCCC(N)(C(=O)O)C(F)F (stereo unspecified) false

What is the recorded call for this compound in the test? CCCc1nn(C)c2c(=O)[nH]c(-c3cc(S(=O)(=O)N4CCN(C)CC4)ccc3OCC)nc12 false

What is the recorded call for this compound in the test? Nc1nc2ccc(OC(F)(F)F)cc2s1 false

What is the recorded call for this compound in the test? NC[C@H](O)c1ccc(O)c(O)c1 false

What is the recorded call for this compound in the test? N=c1nc(N2CCCCC2)cc(N)n1O false
